Ref: patent US20240174622A1

# System: LNCaP tumor-transplanted mouse
# assay procedure: Internal radioactivity distribution using LNCaP tumor-transplanted mouse
# Type: in vivo
# condition summary: 1 h after administration
measured attribute: Lung (% ID/g)
Please respond with the number in % ID/g and leave the unit unwritten.

Look over these answered cases.
compound	units label	test value
O=C(O)CC[C@H](NC(=O)N[C@@H](CCCCNC(=O)[C@H](Cc1ccc2ccccc2c1)NC(=O)[C@H]1CC[C@H](CNC(=O)CCC(C(=O)O)N2CCN(CC(=O)O)CCN(C(CCC(=O)N[C@@H](CCCCNC(=O)CCCc3ccc(I)cc3)C(=O)O)C(=O)O)CCN(CC(=O)O)CC2)CC1)C(=O)O)C(=O)O (some centres unmarked) [[^111In]In-PSMA-NAT-DA1, metal not drawn]	% ID/g	28.1
O=C([O-])CN1CCN(C(CCC(=O)NCCCC[C@H](NC(=O)N[C@@H](CCC(=O)O)C(=O)O)C(=O)O)C(=O)[O-])CCN(CC(=O)[O-])CCN(C(CCC(=O)N[C@@H](CCCCNC(=O)CCCc2ccc(I)cc2)C(=O)O)C(=O)[O-])CC1.[111In+3] (some centres unmarked) [[^111In]In-PSMA-DA1]	% ID/g	16.2
O=C([O-])CN(Cc1cccc(C(=O)[O-])n1)C[C@H](Cc1ccc(NC(=O)[C@H](CCCCNC(=O)CCC(=O)NCCCC[C@H](NC(=O)N[C@@H](CCC(=O)O)C(=O)O)C(=O)O)NC(=O)CCCc2ccc(I)cc2)cc1)N(CC(=O)[O-])Cc1cccc(C(=O)[O-])n1.[111In+3] [[^111In]In-Octapa-2]	% ID/g	10.1
O=C([O-])CN(CCN(CCc1ccc(NC(=O)[C@H](CCCCNC(=O)CCC(=O)NCCCC[C@H](NC(=O)N[C@@H](CCC(=O)O)C(=O)O)C(=O)O)NC(=O)CCCc2ccc(I)cc2)cc1)CCN(CC(=O)[O-])Cc1cccc(C(=O)[O-])n1)Cc1cccc(C(=O)[O-])n1.[111In+3] [[^111In]In-Neunpa-2]	% ID/g	8.99
O=C([O-])CN(Cc1cccc(C(=O)[O-])n1)C[C@H](Cc1ccc(NC(=O)CCCCCNC(=O)CCC(=O)NCCCC[C@H](NC(=O)N[C@@H](CCC(=O)O)C(=O)O)C(=O)O)cc1)N(CC(=O)[O-])Cc1cccc(C(=O)[O-])n1.[111In+3] [[^111In]In-Octapa-1, reference compound]	% ID/g	0.99

Task: Output Lung of O=C([O-])CN(Cc1cccc(C(=O)[O-])n1)C[C@H](Cc1ccc(NC(=O)[C@H](CCCCNC(=O)CCC(=O)NCCCC[C@H](NC(=O)N[C@@H](CCC(=O)O)C(=O)O)C(=O)O)NC(=O)COCCOCCOCC(=O)N[C@@H](CCCCNC(=O)CCCc2ccc(I)cc2)C(=O)O)cc1)N(CC(=O)[O-])Cc1cccc(C(=O)[O-])n1.[111In+3] [[^111In]In-Octapa-3]
Output: 16.7

Task: Output Lung of O=C([O-])CN1CCN(C(CCC(=O)NCCC(=O)N2Cc3ccccc3-c3c(nnn3CCOCCOCCOCCOCCC(=O)NCCCC[C@H](NC(=O)N[C@@H](CCC(=O)O)C(=O)O)C(=O)O)-c3ccccc32)C(=O)[O-])CCN(CC(=O)[O-])CCN(C(CCC(=O)N[C@@H](CCCCNC(=O)CCCc2ccc(I)cc2)C(=O)O)C(=O)[O-])CC1.[111In+3] (some centres unmarked) [[^111In]In-PtDA]
Output: 11.9

Task: Output Lung of O=C([O-])CN1CCN(C(CCC(=O)NCCCC[C@H](NC(=O)N[C@@H](CCC(=O)O)C(=O)O)C(=O)O)C(=O)[O-])CCN(CC(=O)[O-])CCN(C(CCC(=O)Nc2ccccc2)C(=O)[O-])CC1.[111In+3] (some centres unmarked) [[^111In]In-PSMA-DB, reference compound]
Output: 2.24
